Provide the reported Bacterial count (Log10 CFU/ml) 4 hours of each item.
Tested on: K. pneumoniae B-88 producing metallo beta-lactamase enzymes
experimentSummary: Time kill study against K. pneumoniae B-88
Type: cell-based
experimentalConditions: 4 hours; 2 mcg/ml alone

Could you please provide reported Bacterial count (Log10 CFU/ml) 4 hours for "O=C(NNC(=O)[C@@H]1CC[C@@H]2CN1C(=O)N2OS(=O)(=O)O)[C@@H]1CCCNC1" ? Thanks!
8.26 Log10 CFU/ml

Assign Bacterial count (Log10 CFU/ml) 4 hours to the following record: "N#C[C@@H]1CC[C@@H]2CN1C(=O)N2OS(=O)(=O)O"
9.04 Log10 CFU/ml

// fetch Bacterial count (Log10 CFU/ml) 4 hours given entry NCCONC(=O)[C@@H]1CC[C@@H]2CN1C(=O)N2OS(=O)(=O)O [Compound (E)]
8.26 Log10 CFU/ml

# return recorded Bacterial count (Log10 CFU/ml) 4 hours for entry "O=C(NOC[C@@H]1CCCN1)[C@@H]1CC[C@@H]2CN1C(=O)N2OS(=O)(=O)O"
8.26 Log10 CFU/ml
